Measured Inhibition of binding (%), listed per entry.
Biological target: T1, hCMV gB (expressed in HEK293T cells) (human cytomegalovirus, UniProt P06473 32-906)
T1 construct: whole, on cells; also called envelope glycoprotein B; UL55
T1 sequence (P06473 32-906 limits assumed): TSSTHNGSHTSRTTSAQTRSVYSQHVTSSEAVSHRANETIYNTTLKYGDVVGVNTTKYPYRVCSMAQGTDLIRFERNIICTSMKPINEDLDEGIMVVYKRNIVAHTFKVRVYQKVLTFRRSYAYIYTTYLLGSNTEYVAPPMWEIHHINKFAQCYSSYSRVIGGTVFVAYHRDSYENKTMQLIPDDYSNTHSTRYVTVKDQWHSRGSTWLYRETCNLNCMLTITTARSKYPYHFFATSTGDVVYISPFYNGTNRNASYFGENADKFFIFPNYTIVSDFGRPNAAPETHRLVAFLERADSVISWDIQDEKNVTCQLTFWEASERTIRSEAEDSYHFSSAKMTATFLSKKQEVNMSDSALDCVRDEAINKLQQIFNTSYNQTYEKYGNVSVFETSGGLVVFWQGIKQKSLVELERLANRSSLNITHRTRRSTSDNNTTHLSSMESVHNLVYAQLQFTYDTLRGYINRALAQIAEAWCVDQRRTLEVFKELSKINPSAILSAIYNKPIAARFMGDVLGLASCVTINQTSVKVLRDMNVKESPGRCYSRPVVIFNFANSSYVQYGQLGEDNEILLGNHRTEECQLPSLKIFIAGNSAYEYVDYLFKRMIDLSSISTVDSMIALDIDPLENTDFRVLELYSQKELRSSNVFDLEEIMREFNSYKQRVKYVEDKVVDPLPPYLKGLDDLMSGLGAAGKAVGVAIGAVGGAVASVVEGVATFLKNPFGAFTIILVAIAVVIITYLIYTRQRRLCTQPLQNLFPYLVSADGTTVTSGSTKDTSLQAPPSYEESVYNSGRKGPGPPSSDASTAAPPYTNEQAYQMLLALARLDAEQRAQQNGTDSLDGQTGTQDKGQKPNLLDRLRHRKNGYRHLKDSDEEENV
Assay: competitor: 2B11-biotin; cell staining

{"columns": ["binder", "Inhibition of binding (%)"],
 "data": [
  ["4H9 (antibody, V domains shown, human IgG; also called 4H9-biotin) VH: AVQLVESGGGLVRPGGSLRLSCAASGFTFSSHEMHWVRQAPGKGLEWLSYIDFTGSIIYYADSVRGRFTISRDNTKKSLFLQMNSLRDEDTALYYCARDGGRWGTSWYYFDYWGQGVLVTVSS VL: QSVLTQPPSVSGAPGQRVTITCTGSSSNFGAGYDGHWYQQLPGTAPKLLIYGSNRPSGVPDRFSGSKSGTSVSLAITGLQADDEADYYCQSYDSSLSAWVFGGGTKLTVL", 100],
  ["7H3 (antibody, V domains shown, human IgG; also called 7H3-biotin) VH: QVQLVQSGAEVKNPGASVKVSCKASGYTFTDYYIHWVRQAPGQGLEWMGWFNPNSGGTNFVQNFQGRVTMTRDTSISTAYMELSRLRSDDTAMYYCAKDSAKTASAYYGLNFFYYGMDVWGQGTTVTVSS VL: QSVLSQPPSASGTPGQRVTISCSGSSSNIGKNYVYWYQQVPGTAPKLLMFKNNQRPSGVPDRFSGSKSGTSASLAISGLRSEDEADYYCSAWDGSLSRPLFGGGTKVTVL", 0],
  ["2B11 (antibody, V domains shown, human IgG; also called 2B11-biotin) VH: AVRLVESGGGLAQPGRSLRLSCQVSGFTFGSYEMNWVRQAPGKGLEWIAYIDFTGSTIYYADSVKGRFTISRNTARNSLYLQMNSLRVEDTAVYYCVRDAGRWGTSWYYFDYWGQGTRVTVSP VL: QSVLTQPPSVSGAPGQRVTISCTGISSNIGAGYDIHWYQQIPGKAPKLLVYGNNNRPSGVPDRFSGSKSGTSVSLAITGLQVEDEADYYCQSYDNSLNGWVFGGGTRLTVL", 100]
]}
